Consider the following compounds; for each one, report its EC50.
Test system: L. major promastigotes WT
Measurement protocol: Alamar blue drug sensitivity assay, L. major WT
Assay type: cell-based, Leishmania major
Measurement context: Leishmania major; WT promastigotes, 72 h + 48 h with dye; n ≥ 4; read-out: EC50
Numbers only, in µM.

A selection of reference data follows.
Nc1nc(=O)n([C@H]2C[C@H](O)[C@@H](CO)O2)cc1F [5F-2′dCtd, 5-Fluoro-2′-deoxycytidine]; 38
C[C@H]1O[C@@H](n2ccc(=O)[nH]c2=O)[C@H](O)[C@@H]1O [5′dUrd, 5′-deoxyuridine]; 525
N=C(N)c1ccc(/N=N/Nc2ccc(C(=N)N)cc2)cc1 [diminazene]; 9.8
O=c1[nH]c(=O)n([C@@H]2O[C@H](CO)[C@@H](O)[C@H]2O)cc1F [5F-Urd, 5-Fluorouridine]; 18

Data point: N=C(N)c1ccc(OCCCCCOc2ccc(C(=N)N)cc2)cc1 [pentamidine] ; EC50 = 3.3
